Data provenance is ChEMBL document CHEMBL3785001.

experiment: Cytotoxicity against African green monkey BGM cells assessed as cell viability after 24 hrs by neutral red assay; assay type: cell-based; conditions: chlorocebus aethiops, read-out: MLD50
Give measured CC50 at 24 h for each item. Keep answers brief.

// returns reported CC50 at 24 h for input "CCCCn1c(-c2ccc(F)cc2)c(-c2ccccc2)c(C(=O)Nc2ccccc2)c1C(C)C"
> 2200 µM

// returns reported CC50 at 24 h for input "CC(C)c1c(C(=O)Nc2ccccc2)c(-c2ccccc2)c(-c2ccc(F)cc2)n1CCCCNc1ccnc2cc(Cl)ccc12"
187 µM

// returns reported CC50 at 24 h for input COc1cc(NC(C)CCCN)c2ncccc2c1 (stereo unspecified)
452 µM

// returns reported CC50 at 24 h for input "CC(C)c1c(C(=O)Nc2ccccc2)c(-c2ccccc2)c(-c2ccc(F)cc2)n1CCNc1ccnc2cc(Cl)ccc12"
> 1660 µM

// returns reported CC50 at 24 h for input "CC(C)c1c(C(=O)Nc2ccccc2)c(-c2ccccc2)c(-c2ccc(F)cc2)n1CCCNc1ccnc2cc(Cl)ccc12"
136 µM

// returns reported CC50 at 24 h for input COc1cc(NC(C)CCCn2c(-c3ccc(F)cc3)c(-c3ccccc3)c(C(=O)Nc3ccccc3)c2C(C)C)c2ncccc2c1 (stereo unspecified)
> 1560 µM
